From: patent US6441021B1

SYSTEM UNDER TEST: MMP-9 (92 kDa, gelatinase B; type IV collagenase) (Homo sapiens, UniProt P14780)
Construct: endogenous in cells; enzyme purified from the conditioned medium
Sequence (P14780 107-707 limits assumed): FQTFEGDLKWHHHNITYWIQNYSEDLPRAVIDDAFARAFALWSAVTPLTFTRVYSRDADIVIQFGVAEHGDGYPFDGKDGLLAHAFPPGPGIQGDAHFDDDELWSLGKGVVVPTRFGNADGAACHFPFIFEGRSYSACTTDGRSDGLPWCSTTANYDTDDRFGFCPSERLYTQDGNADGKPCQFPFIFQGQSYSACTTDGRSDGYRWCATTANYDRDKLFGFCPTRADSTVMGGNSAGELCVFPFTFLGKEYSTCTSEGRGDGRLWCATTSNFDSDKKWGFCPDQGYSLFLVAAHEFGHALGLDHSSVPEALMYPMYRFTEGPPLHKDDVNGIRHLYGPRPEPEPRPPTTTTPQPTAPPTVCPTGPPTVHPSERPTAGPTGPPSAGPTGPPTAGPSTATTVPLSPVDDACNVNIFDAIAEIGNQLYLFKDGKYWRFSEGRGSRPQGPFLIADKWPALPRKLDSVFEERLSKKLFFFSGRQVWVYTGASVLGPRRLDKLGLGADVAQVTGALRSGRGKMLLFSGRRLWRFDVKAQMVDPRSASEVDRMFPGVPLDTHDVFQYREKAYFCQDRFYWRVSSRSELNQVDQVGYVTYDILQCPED
ASSAY PROCEDURE: Assay of type IV collagenase inhibitors: activated MMP-9 with type IV collagenase activity kit substrate, fluorescent intensity
Type: biochemical
DETAILS: inhibition of type IV collagenase (MMP-9), concentration at which percent inhibition reaches 50%
Procedure: (1) Isolation and Purification of MMP-9 (92 kDa, Gelatinase B) Type IV collagenase (MMP-9) was purified according to the methods descrived in the following literature. Subsequently, activated MMP-9 was obtained by treating the pro-MMP-9 with trypsin. (2) Assay Methods of Type IV Collagenase Inhibitors […] According to the manufacturer's protocol, fluorescent intensity was measured and percent inhibition was determined by the following equation. […]
MEASURE NAME: pIC50
Give bare numbers, as −log10 of the molar value.

CCC(C)[C@@H](NS(=O)(=O)c1ccc(C#Cc2ccc(OC)cc2)cc1)C(=O)O (stereo partly shown); 5.43
CC(C)[C@@H](NS(=O)(=O)c1ccc(-c2nnn(-c3ccccc3)n2)cc1)C(=O)O; 6.96
CSc1ccc(-c2ccc(S(=O)(=O)N[C@@H](C(=O)O)C(C)C)s2)cc1; 7.85

Pending molecule:
Problem: Write down the reported pIC50 of `CSc1ccc(-n2nnc(-c3ccc(S(=O)(=O)N[C@@H](C(=O)O)C(C)C)cc3)n2)cc1` , test system: MMP-9 (92 kDa, gelatinase B; type IV collagenase) (Homo sapiens, UniProt P14780).
Result: 8.23
